Reference source: ChEMBL document CHEMBL3392977

hepatocyte CLint at 1 µM for assorted compounds
Test: Clearance in rat hepatocytes assessed per million cells at 1 uM after 5 to 120 mins by LC-MS/MS analysis
Format: ADME, cell-based, Hepatocyte
Settings: read-out: CLH
# unit: µL/min/1e6 cells | format: bare number

Record request: hepatocyte CLint at 1 µM value, item Cc1ccc(O)c(CNCC23CC4CC(CC(C4)C2)C3)c1
134

// repeat for COc1ccc(CNCC23CC4CC(CC(C4)C2)C3)c(O)c1 and report
391

Others:
Can you share its hepatocyte CLint at 1 µM? I mean this compound: Oc1ccc(Cl)cc1CNCC12CC3CC(CC(C3)C1)C2
208

Input Cc1ccc(O)c(CNCC23CC4CC(CC(C4)C2)C3)n1
49

Proceed to Oc1c(F)cc(Br)cc1CNCC12CC3CC(CC(C3)C1)C2
162

====

System: Plasmodium falciparum
Test: Antiplasmodial activity against multidrug-resistant Plasmodium falciparum K1 by SYBR Green-based method
Type: functional, organism-based
Readings of log10 of IC50 for the listed compounds
All values: base-10 log of IC50 in µM.

Which log10 of IC50 value is on record for COc1cccc(F)c1CNCC12CC3CC(CC(C3)C1)C2 ?
0.04

Now the compound O=C1C(O)=C([C@H]2CC[C@H](c3ccc(Cl)cc3)CC2)C(=O)c2ccccc21
-2.64

Repeat with CC(NCC12CC3CC(CC(C3)C1)C2)c1cc(Br)ccc1O (stereo unspecified)
-1.92

Would you mind doing Oc1ccc(C(F)(F)F)cc1CNCC12CC3CC(CC(C3)C1)C2 as well?
-1.92

====

Measured fraction unbound accompanies every entry in the list below.
Test: Protein binding in human plasma
Type: ADME, cell-free
Simply state the number, no unit and no words.

Examples with answers:
Any idea what its fraction unbound is? The compound is Cc1ccc(O)c(CNCC23CC4CC(CC(C4)C2)C3)c1
0.031

Can you check Cc1ccc(O)c(CNCC23CC4CC(CC(C4)C2)C3)n1 next?
0.122

Follow-up item: Oc1c(F)cc(Br)cc1CNCC12CC3CC(CC(C3)C1)C2
0.005

Also check Oc1ccc(Cl)cc1CNCC12CC3CC(CC(C3)C1)C2
0.004

Next up:
For the compound COc1ccc(CNCC23CC4CC(CC(C4)C2)C3)c(O)c1 , what fraction unbound is on record?
0.044

====

Test: Octanol-water partition coefficient, log D by shake-flask method
Assay type: physicochemical
measurementName: logD
Returns: the value as a bare number; no unit string appended.

Any idea what its logD is? The compound is COc1ccc(CNCC23CC4CC(CC(C4)C2)C3)c(O)c1
2.7

Now give it for Cc1ccc(O)c(CNCC23CC4CC(CC(C4)C2)C3)c1 too.
3.3

How about Cc1ccc(O)c(CNCC23CC4CC(CC(C4)C2)C3)n1 ?
3

Continuing:
# lookup: logD of Oc1c(F)cc(Br)cc1CNCC12CC3CC(CC(C3)C1)C2
3.7

Repeat with Oc1ccc(Cl)cc1CNCC12CC3CC(CC(C3)C1)C2
4

====

Target: UniProt Q12809
Sequence (Q12809 whole entry): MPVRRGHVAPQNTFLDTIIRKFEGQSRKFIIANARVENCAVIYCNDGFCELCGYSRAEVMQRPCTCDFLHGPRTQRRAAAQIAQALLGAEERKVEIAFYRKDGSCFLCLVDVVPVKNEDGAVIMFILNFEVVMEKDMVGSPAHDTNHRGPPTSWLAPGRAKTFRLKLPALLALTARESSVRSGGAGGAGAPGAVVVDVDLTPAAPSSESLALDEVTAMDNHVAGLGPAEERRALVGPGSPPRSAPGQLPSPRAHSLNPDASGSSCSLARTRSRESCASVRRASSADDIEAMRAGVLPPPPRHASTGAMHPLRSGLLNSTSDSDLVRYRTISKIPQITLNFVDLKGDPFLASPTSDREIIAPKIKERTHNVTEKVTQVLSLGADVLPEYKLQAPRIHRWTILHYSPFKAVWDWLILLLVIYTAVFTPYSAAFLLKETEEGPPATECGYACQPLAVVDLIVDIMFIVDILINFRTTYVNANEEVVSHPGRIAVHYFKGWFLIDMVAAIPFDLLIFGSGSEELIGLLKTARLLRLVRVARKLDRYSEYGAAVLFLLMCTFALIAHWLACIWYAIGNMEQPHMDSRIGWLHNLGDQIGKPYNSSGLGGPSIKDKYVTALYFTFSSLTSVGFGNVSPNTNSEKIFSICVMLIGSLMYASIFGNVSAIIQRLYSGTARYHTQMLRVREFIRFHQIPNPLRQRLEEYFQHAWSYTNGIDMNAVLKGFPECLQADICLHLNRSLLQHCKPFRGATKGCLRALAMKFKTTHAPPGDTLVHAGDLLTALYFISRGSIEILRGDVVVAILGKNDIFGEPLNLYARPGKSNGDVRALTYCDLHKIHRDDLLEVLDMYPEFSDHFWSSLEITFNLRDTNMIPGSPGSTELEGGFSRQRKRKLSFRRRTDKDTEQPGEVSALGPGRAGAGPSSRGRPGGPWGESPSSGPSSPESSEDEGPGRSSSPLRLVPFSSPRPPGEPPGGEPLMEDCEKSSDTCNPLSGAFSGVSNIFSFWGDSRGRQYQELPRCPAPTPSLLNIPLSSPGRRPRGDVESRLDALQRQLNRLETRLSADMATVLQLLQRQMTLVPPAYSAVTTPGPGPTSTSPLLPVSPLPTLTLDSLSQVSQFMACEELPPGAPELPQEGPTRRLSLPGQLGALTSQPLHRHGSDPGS
Assay: Inhibition of human ERG at 11.1 uM
Given measured inhibition at 11.1 µM, output true if it is greater than or equal to 30% and false if not.

Observe how each entry below is paired with its result.
API: above_or_equal(metric=inhibition at 11.1 µM, cutoff=30%) for item Cc1ccc(O)c(CNCC23CC4CC(CC(C4)C2)C3)c1
false

Query Cc1ccc(O)c(CNCC23CC4CC(CC(C4)C2)C3)n1 next
false

Next molecule up: COc1ccc(CNCC23CC4CC(CC(C4)C2)C3)c(O)c1
true

Also check Oc1c(F)cc(Br)cc1CNCC12CC3CC(CC(C3)C1)C2
false

Continuing:
Please check the record Oc1ccc(Cl)cc1CNCC12CC3CC(CC(C3)C1)C2 and state if its inhibition at 11.1 µM is at or above 30%.
false
